Biological target: MGL (Rattus norvegicus, UniProt Q8R431)
Construct: one g rat brain was homogenized using a Polytron homogenizer; from tissue; host or cells: rat brain homogenate
Sequence (Q8R431 1-303): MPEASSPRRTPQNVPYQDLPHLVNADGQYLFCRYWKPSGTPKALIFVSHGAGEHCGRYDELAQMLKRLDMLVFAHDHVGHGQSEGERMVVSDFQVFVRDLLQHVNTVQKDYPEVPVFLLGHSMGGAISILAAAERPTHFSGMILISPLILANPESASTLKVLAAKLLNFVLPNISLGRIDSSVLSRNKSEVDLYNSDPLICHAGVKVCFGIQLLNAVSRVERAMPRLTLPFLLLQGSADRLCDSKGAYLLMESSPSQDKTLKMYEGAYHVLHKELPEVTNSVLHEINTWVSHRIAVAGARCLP
Test: 2-AG accumulation assay in rat brain homogenate
Format: biochemical
Conditions: rat brain homogenate; compound 1 μM; 2-AG accumulation as percent of vehicle; read-out: Rat Brain 2AG % VehCntrl (%) @ 1 μM
Please go through the items and note down their 2-AG accumulation, % of vehicle control at 1 µM.

What does the data say about its 2-AG accumulation, % of vehicle control at 1 µM? Entry: O=C(c1cccc(C(F)(F)F)c1)N1CCc2cc(C(=O)N3CC(N4CCN(C(=O)c5nccs5)CC4)C3)ccc2C1 [Cpd 679]
751%

Next record, please: O=C(c1ccc2c(c1)CCN2Cc1ccc(C(F)(F)F)cc1)N1CC(N2CCN(C(=O)c3nccs3)CC2)C1 [Cpd 882]
697%

Next record, please: O=C(c1ccccc1)N1CCN(C2CN(C(=O)c3ccc(OCc4ccc(Cl)s4)cc3)C2)CC1 [Cpd 972]
683%

Next record, please: Cn1cc(Cc2ccc(F)cc2)c2ccc(C(=O)N3CC(N4CCN(C(=O)c5ccc[nH]5)CC4)C3)cc21 [Cpd 1028]
647%

Next record, please: Cc1nc(-c2cccc(Cl)c2)sc1C(=O)N1CC(N2CCN(C(=O)c3nccs3)CC2)C1 [Cpd 490]
756%

Next record, please: Cc1sc(C(=O)N2CC(N3CCN(C(=O)c4nccs4)CC3)C2)cc1-c1ccc(F)cc1 [Cpd 1096]
449%

Next record, please: O=C(c1ccccc1)N1CCN(C2CN(C(=O)c3sc4cc(-c5ccccc5)ccc4c3Cl)C2)CC1 [Cpd 344]
238%

Next record, please: Cc1c(C(=O)N2CC(N3CCN(C(=O)c4nccs4)CC3)C2)cccc1-c1ccccc1 [Cpd 1234]
226%

Next record, please: Cc1nc(-c2ccc(Cl)cc2)sc1C(=O)N1CC(N2CCN(C(=O)c3cscn3)CC2)C1 [Cpd 1384]
313%

Next record, please: O=C(c1nccs1)N1CCN(C2CN(C(=O)c3[nH]c4nc(C(F)(F)F)ccc4c3Br)C2)CC1 [Cpd 675]
330%

Next record, please: O=C(c1ccc(-c2nc(-c3ccc(Cl)cc3Cl)cs2)cc1)N1CC(N2CCN(C(=O)c3nccs3)CC2)C1 [Cpd 1329]
834%

Next record, please: O=C(c1ccc(Oc2cccc(Cl)c2)nc1)N1CC(N2CCN(C(=O)c3nccs3)CC2)C1 [Cpd 683]
335%

Next record, please: O=C(c1ccc2c(cnn2-c2ccccc2)c1)N1CC(N2CCN(C(=O)c3cscn3)CC2)C1 [Cpd 1163]
244%

Next record, please: O=C(c1nccs1)N1CCN(C2CN(C(=O)c3cc(-c4ccccc4)oc3C(F)(F)F)C2)CC1 [Cpd 1379]
282%

Next record, please: CC(C)(C)OC(=O)N1CCC(c2ccc(C(=O)N3CC(N4CCN(C(=O)c5cscn5)CC4)C3)cc2)CC1 [Cpd 903]
908%

Next record, please: O=C(c1ccc(Sc2cccc(Cl)c2)cc1)N1CC(N2CCN(C(=O)c3nccs3)CC2)C1 [Cpd 428]
734%

Next record, please: O=C(c1nccs1)N1CCN(C2CN(C(=O)c3ccc(-c4ccccc4)cc3F)C2)CC1 [Cpd 1405]
197%

Next record, please: O=C(c1ccc(S(=O)(=O)c2cccc(C(F)(F)F)c2)cc1)N1CC(N2CCN(C(=O)c3nccs3)CC2)C1 [Cpd 651]
258%

Next record, please: COc1ccc(-c2cccc(C(=O)N3CC(N4CCN(C(=O)c5nccs5)CC4)C3)c2)cc1 [Cpd 1091]
450%

Next record, please: O=C(c1ccc(Cc2cccc(C(F)(F)F)c2)cc1)N1CC(N2CCN(C(=O)c3cscn3)CC2)C1 [Cpd 998]
639%

Next record, please: O=C(c1ccc(-c2cccc(C(F)(F)F)c2)c(F)c1)N1CC(N2CCN(C(=O)c3cscn3)CC2)C1 [Cpd 1070]
551%

Next record, please: Cn1cc(-c2ccc(C(F)(F)F)cc2)c2ccc(C(=O)N3CC(N4CCN(C(=O)c5nccs5)CC4)C3)cc21 [Cpd 1347]
741%

Next record, please: O=C(c1ccc(-c2ccc(C(F)(F)F)s2)cc1)N1CCN(C2CN(C(=O)c3ccc[nH]3)C2)CC1 [Cpd 1162]
237%

Next record, please: O=C(c1nccs1)N1CCN(C2CN(C(=O)c3sc4cc(F)ccc4c3C3CCC3)C2)CC1 [Cpd 695]
497%

Next record, please: O=C(c1ccc2c(c1)CCCN2C(=O)c1ccc(C(F)(F)F)cc1)N1CC(N2CCN(C(=O)c3nccs3)CC2)C1 [Cpd 365]
971%

Next record, please: CS(=O)(=O)c1cccc(-c2ccc(C(=O)N3CC(N4CCN(C(=O)c5nccs5)CC4)C3)cc2)c1 [Cpd 208]
480%

----------
Target: mutant MGL (Homo sapiens, UniProt Q99685, L169S/L176S)
Sequence (Q99685 1-303 L169S/L176S): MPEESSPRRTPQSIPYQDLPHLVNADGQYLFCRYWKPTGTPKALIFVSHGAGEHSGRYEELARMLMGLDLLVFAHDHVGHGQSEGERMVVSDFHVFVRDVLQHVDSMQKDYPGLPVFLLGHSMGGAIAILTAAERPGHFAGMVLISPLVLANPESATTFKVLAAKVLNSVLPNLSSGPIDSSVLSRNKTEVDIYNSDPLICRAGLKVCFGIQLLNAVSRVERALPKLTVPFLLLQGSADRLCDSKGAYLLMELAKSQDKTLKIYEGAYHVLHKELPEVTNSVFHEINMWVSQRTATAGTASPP
Assay: MGL ThermoFluor assay - mutant
Format: binding
Settings: ThermoFluor, compound concentration measured by qNMR, read-out: MGL mutant ThermoFluor qKd (μM) (using qNMR conc.)
Please go through the items and note down their Kd.
Give your result as the value with the unit written after it.

What does the data say about its Kd? Entry: O=C(c1ccc(-c2ccccc2)cc1)N1CC(N2CCN(C(=O)c3nccs3)CC2C(F)(F)F)C1 (stereo not drawn)
12.2 µM

Next record, please: O=C(c1cscn1)N1CCN(C2CN(C(=O)c3cn(-c4ccc(F)cc4)c4ccccc34)C2)CC1
1.51 µM

Next record, please: O=C(c1ccc[nH]1)N1CCN(C2CN(C(=O)c3cc4ccc(C(F)(F)F)nc4[nH]3)C2)CC1
3.33 µM

Next record, please: O=C(c1ccc(-n2cc(-c3ccc(Cl)cc3)cn2)cc1)N1CC(N2CCN(C(=O)c3nccs3)CC2)C1
0.08 µM

Next record, please: O=C(c1ccc(-c2cccc(C(F)(F)F)c2)cc1)N1CC(N2CCN(C(=O)C3CC3)CC2)C1
0.016 µM

Next record, please: O=C(c1ccccc1)N1CCN(C2CN(C(=O)c3ccc4c(ccn4-c4ccc(OC(F)(F)F)cc4)c3)C2)CC1
0.1 µM

----------
Target: purified wild type MGL (wt-MGLL 6H-11-313) (Homo sapiens, UniProt Q99685)
readout: pIC50
Please report pIC50 as the negative decimal logarithm of the molar concentration, giving only the number.

What does the data say about its pIC50? Entry: O=C(c1ccc2c(c1)[nH]c(=O)n2CCC(F)(F)F)N1CC(N2CCN(C(=O)c3nccs3)CC2)C1
6.16

Next record, please: O=C(c1ccc2nc(C(F)(F)F)sc2c1)N1CC(N2CCN(C(=O)c3nccs3)CC2)C1
6.83

Next record, please: Cc1c(C(=O)N2CC(N3CCN(C(=O)c4nccs4)CC3)C2)c2ccccc2n1C
5.82

Next record, please: O=C(c1ccccc1)N1CCN(C2CN(C(=O)c3ccc4c(ccn4-c4ccc(Cl)c(F)c4)c3)C2)CC1
7.14

Next record, please: O=C(c1cccc(-c2cccc(C(F)(F)F)c2)c1)N1CC(N2CCN(C(=O)c3cscn3)CC2)C1
7.03

Next record, please: O=C(c1ccccc1)N1CCN(C2CN(C(=O)c3ccc(-c4cccc(C(F)(F)F)c4)cc3Cl)C2)CC1
7.09

Next record, please: O=C(Nc1ccc(C(=O)N2CC(N3CCN(C(=O)c4nccs4)CC3)C2)cc1)C1CCCCC1
6.93

----------
Molecular target: mutant MGL (Homo sapiens, UniProt Q99685, L169S/L176S)
Sequence (Q99685 1-303 L169S/L176S): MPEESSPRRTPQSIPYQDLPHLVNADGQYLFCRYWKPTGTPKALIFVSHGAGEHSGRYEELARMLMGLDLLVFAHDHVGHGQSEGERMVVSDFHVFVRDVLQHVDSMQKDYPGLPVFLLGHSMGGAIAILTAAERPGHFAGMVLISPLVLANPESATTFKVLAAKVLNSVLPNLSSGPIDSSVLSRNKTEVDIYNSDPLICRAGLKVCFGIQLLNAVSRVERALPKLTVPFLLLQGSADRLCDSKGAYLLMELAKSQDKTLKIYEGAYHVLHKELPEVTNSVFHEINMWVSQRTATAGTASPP
Experiment: MGL ThermoFluor assay - mutant
Type: binding
Conditions: ThermoFluor concentration-response, read-out: MGL mutant ThermoFluor Kd
Please go through the items and note down their Kd.
Number only, in nM; omit the unit.

What does the data say about its Kd? Entry: O=C(c1cscn1)N1CCN(C2CN(C(=O)c3nn(-c4ccc(Cl)cc4Cl)c4c3CCC/C4=C\c3ccc(Cl)cc3)C2)CC1 [Cpd 1023]
143

Next record, please: Cc1nc(-c2cccc(Cl)c2)sc1C(=O)N1CC(N2CCN(C(=O)c3ccccc3)CC2)C1 [Cpd 620]
154

Next record, please: O=C(c1ccc(Oc2cccc(C(F)(F)F)c2)cc1)N1CC(N2CCN(C(=O)c3nccs3)CC2)C1 [Cpd 424]
9.41

Next record, please: O=C(c1ccccc1)N1CCN(C2CN(C(=O)c3ccc(-c4ccccc4)cc3)C2)C(CO)C1 (stereo not shown) [Cpd 458]
6670

Next record, please: O=C(c1ccc(O[C@H]2CCN(C(=O)N3CCCC3)C2)c(I)c1)N1CC(N2CCN(C(=O)c3nccs3)CC2)C1 [Cpd 452]
200

Next record, please: COc1ccc(C(=O)N2CC(N3CCN(C(=O)c4cscn4)CC3)C2)cc1-c1ccccc1 [Cpd 1265]
660

Next record, please: COc1ccc2c(C)c(C(=O)N3CC(N4CCN(C(=O)c5cscn5)CC4)C3)oc2c1 [Cpd 850]
1000

Next record, please: O=C(c1ccc2nc(C(F)(F)F)cc(Cl)c2c1)N1CCN(C2CN(C(=O)c3cscn3)C2)CC1 [Cpd 859]
1430

Next record, please: COc1cc(C(=O)N2CC(N3CCN(C(=O)c4nccs4)CC3)C2)ccc1-c1ccccc1 [Cpd 1377]
6

Next record, please: O=C(c1ccccc1)N1CCN(C2CN(C(=O)c3sc4cc(C(F)(F)F)ccc4c3F)C2)CC1 [Cpd 509]
33

Next record, please: O=C(c1cccc(-c2ccc(F)cc2F)c1)N1CC(N2CCN(C(=O)c3cscn3)CC2)C1 [Cpd 1239]
3040

Next record, please: O=C(c1ccc2c(-c3cccc(C(F)(F)F)c3)c[nH]c2c1)N1CC(N2CCN(C(=O)c3cscn3)CC2)C1 [Cpd 1345]
6

Next record, please: Cn1c2ccccc2c2cc(C(=O)N3CC(N4CCN(C(=O)c5ccccc5)CC4)C3)ccc21 [Cpd 51]
250

Next record, please: O=C(c1ccc(-c2ccccc2)cc1)N1CCN(C2CN(C(=O)c3csnn3)C2)CC1 [Cpd 1276]
807

Next record, please: O=C(c1ccccc1)N1CCN(C2CN(C(=O)c3ccc(Oc4cccnc4)cc3)C2)CC1 [Cpd 527]
10000

Next record, please: O=C(c1ccc(Oc2ccc(Cl)cn2)cc1)N1CC(N2CCN(C(=O)c3nccs3)CC2)C1 [Cpd 717]
67

The reported measurements were obtained from patent US8362000B2.
